- Species on record: Homo sapiens
- assay summary: Binding affinity to human plasma antithrombin assessed as maximal change in fluorescence tryptophan fluorescence by fluorescence spectroscopy
- Assay type: cell-free
Form field: Activity (one value per entry).
Answer with a number only, understood to be in %.

Check out these entries, answers already filled in.
# molecule, measurement units, Activity
records = [
    ("O=C([O-])C1Cc2c(OS(=O)(=O)[O-])ccc(OS(=O)(=O)[O-])c2CN1C(=O)CCc1cc(OS(=O)(=O)[O-])ccc1OS(=O)(=O)[O-].[Na+].[Na+].[Na+].[Na+].[Na+] (stereo not drawn)", "%", -127),
    ("O=C(Cc1cc(OS(=O)(=O)[O-])ccc1OS(=O)(=O)[O-])N1CCc2cc(OS(=O)(=O)[O-])c(OS(=O)(=O)[O-])cc2C1.[Na+].[Na+].[Na+].[Na+]", "%", -38),
    ("O=C(CCCc1cc(OS(=O)(=O)[O-])ccc1OS(=O)(=O)[O-])N1CCc2c(ccc(OS(=O)(=O)[O-])c2OS(=O)(=O)[O-])C1.[Na+].[Na+].[Na+].[Na+]", "%", -24),
    ("O=C([O-])C1Cc2cc(OS(=O)(=O)[O-])c(OS(=O)(=O)[O-])cc2CN1C(=O)CCCc1cc(OS(=O)(=O)[O-])ccc1OS(=O)(=O)[O-].[Na+].[Na+].[Na+].[Na+].[Na+] (stereo not drawn)", "%", -104),
    ("O=C([O-])C1Cc2cc(OS(=O)(=O)[O-])c(OS(=O)(=O)[O-])cc2CN1C(=O)Cc1cc(OS(=O)(=O)[O-])ccc1OS(=O)(=O)[O-].[Na+].[Na+].[Na+].[Na+].[Na+] (stereo not drawn)", "%", -63),
    ("O=C([O-])C1Cc2c(OS(=O)(=O)[O-])ccc(OS(=O)(=O)[O-])c2CN1C(=O)CCCc1cc(OS(=O)(=O)[O-])ccc1OS(=O)(=O)[O-].[Na+].[Na+].[Na+].[Na+].[Na+] (stereo not drawn)", "%", -140),
    ("O=C([O-])C1Cc2c(OS(=O)(=O)[O-])ccc(OS(=O)(=O)[O-])c2CN1C(=O)Cc1cc(OS(=O)(=O)[O-])ccc1OS(=O)(=O)[O-].[Na+].[Na+].[Na+].[Na+].[Na+] (stereo not drawn)", "%", -40),
]

// moving on: another record for Activity
Consider the molecule O=C([O-])C1Cc2cc(OS(=O)(=O)[O-])c(OS(=O)(=O)[O-])cc2CN1C(=O)CCc1cc(OS(=O)(=O)[O-])ccc1OS(=O)(=O)[O-].[Na+].[Na+].[Na+].[Na+].[Na+] (stereo not drawn) . State its measured Activity. -51
